Tested on: PKAC-beta
Construct: gene PRKACB
Condition Label: concentration: 1 μM, replicates: in singlicate; n = 1;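 further: KINOMEscan kinase panel screen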
Observable: %Inh (%)
The response must be a number in % with no trailing unit.

Molecule | %Inh / %
COc1ccc(Nc2nccc(N3CCC(NC(=O)C(C)c4ccc(Cl)cc4)C3)n2)cc1 (stereo not shown) | 4

Consider the record given below.
Exercise: Given the molecule O=C(Nc1n[nH]c2nc(-c3cccs3)c(Br)cc12)C1CCCC1 , what is its reported %Inh?
Solution: 0

----------
Tested on: ERK5
Construct: gene MAPK7
Condition Label: concentration: 1 μM, replicates: in singlicate; n = 1
Observable: %Inh
Just so you know, I need the unit written after the number.

For orientation, consider the following solved cases.
Molecule | Target Entity | %Inh
COc1ccc(CSc2nnc(-c3ccc4c(c3)CCO4)o2)cc1 | ERK5 | 6%
CS(=O)(=O)CCNCc1nc(-c2ccc3ncnc(Nc4ccc(OCc5ccccc5)c(Cl)c4)c3c2)cs1.Cl [GW582764] | ERK5 | 0%
COC(=O)c1cccc(NC(=O)NC2CCN(c3ccnc(Nc4ccc(F)cc4)n3)C2)c1 (stereo not shown) [GSK1379725] | ERK5 | 0%
FC(F)(F)c1ccccc1-c1cc(-c2c[nH]nc2-c2ccccn2)ccn1 [GW679396] | ERK5 | 0%
COc1ccc(CSc2nnc(-c3ccc4nccn4c3)o2)cc1C(F)(F)F | ERK5 | 1%

Exercise: Given the molecule O=C(Nc1n[nH]c2nc(-c3cccs3)c(Br)cc12)C1CC1 [SB-735297] , what is its reported %Inh?
Solution: 0%

Exercise: Given the molecule COc1ccc(-c2coc3ccc(-c4nnc(C)o4)cc23)cc1 , what is its reported %Inh?
Solution: 1%
